pKi: −log10 of the molar value.
Ok so here's the combined literature set: pKi for HPK1 (Homo sapiens (Human), UniProt Q92918).

>>> result("Cn1cc(-c2n[nH]c3cnc(-c4cccc(CN5CCC5)c4C(F)(F)F)cc23)cn1")
"≥ 7.00"
>>> result("Cn1cc(-c2n[nH]c3cnc(-c4c(F)ccc(NC(=O)C5CCC5)c4F)cc23)cn1")
"≥ 7.00"
>>> result("CS(=O)(=O)Nc1cccc(-c2cnc3c(c2Cl)C2(CC=CC2)CN3)c1")
7.15
>>> result("CCc1c(Cl)[nH]c2ncc(-c3ccc(N)c(C(=O)N(C)C)n3)cc12")
8.52
>>> result("CN1CCN(c2ccc(-c3n[nH]c4cnc(-c5c(F)cccc5F)cc34)cc2)CC1")
"≥ 7.00"
>>> result("O=C(c1cccc(-c2cnc3c(c2)C2(CC2)CN3)c1F)N1CCCCC1")
7.47

Task item: Report pKi for `COc1cccc(F)c1-c1ncc2[nH]nc(-c3cccc(CN4CCN(C)CC4)c3)c2n1` tested on HPK1 (Homo sapiens (Human), UniProt Q92918).
Reply: ≥ 7.00

Task item: Report pKi for `COc1cccc(F)c1-c1nccc(C(=O)Nc2cc(F)c3nn(C)cc3c2N2CCN[C@@H](CO)C2)n1` tested on HPK1 (Homo sapiens (Human), UniProt Q92918).
Reply: > 7.00

Task item: Report pKi for `CNCc1cc(F)c(-c2cc3c(NC(=O)c4cnn(C)c4)n[nH]c3cn2)c(F)c1` tested on HPK1 (Homo sapiens (Human), UniProt Q92918).
Reply: ≥ 7.00

Task item: Report pKi for `CN1CCN(c2ccc(-c3n[nH]c4ccc(-c5ccccc5-c5ccccc5)nc34)cc2)CC1` tested on HPK1 (Homo sapiens (Human), UniProt Q92918).
Reply: 6.30 to 7.00

Task item: Report pKi for `COc1cccc(F)c1-c1cc2c(NC(=O)c3ccc(N4CCOCC4)cc3)n[nH]c2cn1` tested on HPK1 (Homo sapiens (Human), UniProt Q92918).
Reply: ≥ 7.00

Task item: Report pKi for Nc1cc(C2CC2)cc2cc(NC(=O)[C@@H]3C[C@@H]3F)nnc12 (racemic) tested on HPK1 (Homo sapiens (Human), UniProt Q92918).
Reply: 6.22

Task item: Report pKi for `Cc1ccncc1-c1cc2c(NC(=O)c3ccc(N4CCOCC4)cc3)n[nH]c2cn1` tested on HPK1 (Homo sapiens (Human), UniProt Q92918).
Reply: ≥ 7.00
